The reported numbers originate from patent US11433040B2.

Observed pIC50, system human Sec24a (Homo sapiens, UniProt O95486).
Give only the number. pIC50 is defined as minus log10 of concentration in molar units.

Solved cases below.
COMPOUND: COc1ccc(CCCC(=O)O)cc1 [Methoxy-PBA, 4-(4-methoxyphenyl)butyrate]
TEST_TARGET: human Sec24a (Homo sapiens, UniProt O95486)
Sequence (O95486 341-1093): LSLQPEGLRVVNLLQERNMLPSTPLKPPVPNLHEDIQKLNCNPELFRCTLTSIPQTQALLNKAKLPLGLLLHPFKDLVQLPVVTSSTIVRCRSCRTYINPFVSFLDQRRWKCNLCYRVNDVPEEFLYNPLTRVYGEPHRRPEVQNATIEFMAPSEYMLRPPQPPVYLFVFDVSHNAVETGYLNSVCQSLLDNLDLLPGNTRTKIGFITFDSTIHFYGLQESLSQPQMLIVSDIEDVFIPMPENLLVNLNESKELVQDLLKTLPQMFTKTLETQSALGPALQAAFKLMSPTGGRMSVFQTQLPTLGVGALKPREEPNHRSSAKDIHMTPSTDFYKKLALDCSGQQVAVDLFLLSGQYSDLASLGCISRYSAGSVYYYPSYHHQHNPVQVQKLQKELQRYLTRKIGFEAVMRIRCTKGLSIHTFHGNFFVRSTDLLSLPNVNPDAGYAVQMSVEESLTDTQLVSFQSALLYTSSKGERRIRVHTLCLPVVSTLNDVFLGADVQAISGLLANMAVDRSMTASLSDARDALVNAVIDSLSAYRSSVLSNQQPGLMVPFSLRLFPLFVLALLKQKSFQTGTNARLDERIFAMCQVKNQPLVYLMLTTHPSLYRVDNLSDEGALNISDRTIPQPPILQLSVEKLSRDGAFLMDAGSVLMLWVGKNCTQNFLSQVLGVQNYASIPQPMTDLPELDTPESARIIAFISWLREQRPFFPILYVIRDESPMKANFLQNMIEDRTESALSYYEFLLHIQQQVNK
pIC50: 2.38
--
COMPOUND: Cc1ccc(CCCC(=O)O)cc1 [Tolyl-BA, 4-(4-tolyl)butyrate]
TEST_TARGET: human Sec24a (Homo sapiens, UniProt O95486)
pIC50: 2.77
--
COMPOUND: O=C(O)CCCc1ccccc1 [4-PBA, 4-phenylbutyrate]
TEST_TARGET: human Sec24a (Homo sapiens, UniProt O95486)
pIC50: 2.44
--
COMPOUND: O=C(O)CCc1ccccc1 [3-PPA, 3-phenylpropionate]
TEST_TARGET: human Sec24a (Homo sapiens, UniProt O95486)
pIC50: 2.39
--
COMPOUND: O=C(O)CCc1ccc(O)cc1 [Hydroxy-PPA, 3-(4-hydroxyphenyl)propionate]
TEST_TARGET: human Sec24a (Homo sapiens, UniProt O95486)
pIC50: 2.04
--
COMPOUND: O=C(O)CCCc1ccc(O)cc1 [Hydroxy-PBA, 4-(4-hydroxyphenyl)butyrate]
TEST_TARGET: human Sec24a (Homo sapiens, UniProt O95486)
pIC50: 2.30

Pending compound:
QUERY: Find the recorded pIC50 belonging to O=C(O)CCCCc1ccccc1 [5-PVA, 5-phenylvalerate] and report it.
RESULT: 3.00
